# Test system: Plasmodium falciparum
# test: GSK_TCMDC: Inhibition of Plasmodium falciparum Dd2 in whole red blood cells, using parasite LDH activity as an index of growth. Test compounds present at 2uM
# Format: functional
// reported Inhibition per item
Reply with just the number (in %).

• Cc1cc(N(C)C2CCN(C)C2)nc(Nc2ccc(Cl)cc2)n1 (centres undefined) = 88
• Nc1c(Cl)cc(C(O)CNCCCCCOCCCc2ccc(O)c3ncccc23)cc1Cl.O=C(O)/C=C/C(=O)O (centres undefined) = 12
• COc1ccc(Cc2c(C)nc3nc(N)nc(N)c3c2C)cc1.Cl = 2

Lookup result for CC(=O)Oc1cc(OCc2ccccc2)c(OC(C)=O)c(OCc2ccccc2)c1 ; measured Inhibition: 78

Lookup result for O=c1cc(NCCCNCc2ccc(C(F)(F)F)cc2F)[nH]c2ccccc12 ; measured Inhibition: 48

Lookup result for O=C(O)C(F)(F)F.O=[N+]([O-])c1cccc(CNCC2CCN(Cc3ccc(O)cc3)CC2)c1 ; measured Inhibition: 5

Lookup result for CC(C)CNC(=O)c1cncc(-c2ccc(CNCCCc3ccccc3)cc2)c1.O=C(O)C(F)(F)F ; measured Inhibition: 73

Lookup result for Nc1nccc(-c2ccc3c(-c4cccc(F)c4)cnc(N)c3c2)n1 ; measured Inhibition: 44

Lookup result for Cc1ccc(-n2nc3ccc(NC(=O)c4ccc([N+](=O)[O-])o4)cc3n2)cc1C ; measured Inhibition: 95

Lookup result for O=C(/C=C/c1ccc(Cl)cc1)NCCCCCN1CCCN(C(=O)Nc2cccc(Cl)c2)CC1 ; measured Inhibition: 10

Lookup result for COc1cccc(CNC(=O)c2ccnc(-c3cccc(CN(C)C4CCN(C)CC4)c3)c2)c1.O=C(O)C(F)(F)F ; measured Inhibition: 46

Lookup result for COc1ccc(Oc2ccccc2CNCC2CCN(CC3CCCCC3)CC2)cc1.O=C(O)C(F)(F)F ; measured Inhibition: 28

Lookup result for CCCN1CCN(CC(O)CNC(=O)Nc2ccc(Br)cc2)CC1.O=C(O)C(F)(F)F (centres undefined) ; measured Inhibition: 100

Lookup result for O=C(O)C(F)(F)F.Oc1ccc(CCNc2nc(NCCCOc3ccccc3-c3cccc(C(F)(F)F)c3)nc(N3CCNCC3)n2)cc1 ; measured Inhibition: 5

Lookup result for Cl.N#Cc1cccc(-c2ccc(C(=O)Nc3ccc4c(c3)CCN(C3CCC3)CC4)cn2)c1 ; measured Inhibition: 5

Lookup result for CC(=O)Oc1c(C(=O)C2CCC(C(C)(C)C)CC2)c(OC(C)=O)c2ccccc2c1OC(C)=O (centres undefined) ; measured Inhibition: 96

Lookup result for Cc1cc(NCC(c2ccccc2)c2ccccc2)nc(NCC2CCCCC2)n1 ; measured Inhibition: 93

Lookup result for Cc1cnc(-c2ccc(NC(=O)N3CCc4cc5nccc(N6CCN7CCC[C@H]7C6)c5cc43)c3ccccc23)o1.Cl ; measured Inhibition: 45

Lookup result for COc1ccccc1NC(=O)Nc1cccc(-c2cccc(-c3nc4cccc(C)c4[nH]3)c2)c1 ; measured Inhibition: 90

====

# Tested on: HepG2
# test: GSK_TCMDC: Percent inhibition of human HepG2 cell line. Test compounds present at 10uM.
# Format: functional
value kind: Inhibition (%)
Reply with just the number (in %).

Below, 3 compounds whose answers are already recorded.
• O=c1cc(NCCCNCc2cccc(Oc3ccccc3)c2)[nH]c2ccccc12 = 0
• Cc1ccc(Nc2nc(NN=Cc3ccc(-c4ccc([N+](=O)[O-])cc4)o3)nc(N3CCOCC3)n2)cc1Cl = 12
• Cc1nc(-c2ccc(C(F)(F)F)cn2)sc1C(=O)N1CCc2cc3nccc(N4CCN5CCC[C@H]5C4)c3cc21.Cl = 5

Lookup result for Cc1cccc2nc(C(=O)Nc3nc(CN4CCC(C)CC4)cs3)cn12 ; measured Inhibition: 0

Lookup result for O=C(/C=C/c1ccc(CNCCN2CCOCC2)cc1)NCCc1ccccc1 ; measured Inhibition: 9

Lookup result for CCCC(C)NC[C@@H](O)[C@H](Cc1ccccc1)NC(=O)c1cc(C2CCCC2)cc(N2CCCCS2(=O)=O)c1.Cl (some centres undefined) ; measured Inhibition: 8

Lookup result for Cc1cccc2nc(-c3ccc(-c4ccc(NC(=O)NCc5ccc(F)cc5)cc4)cc3)[nH]c12 ; measured Inhibition: 70

Lookup result for O=C(Nc1ccc(OC(F)(F)F)cc1)NC1CCN(c2ccnc3ccccc23)CC1.O=C(O)C(F)(F)F ; measured Inhibition: 40

Lookup result for COc1ccc(N2CCN(CCCCNC(=O)c3ccc(NC(=O)c4ccc(C(F)(F)F)cc4)cc3)CC2)c(OC)c1 ; measured Inhibition: 4

Lookup result for CCNc1cc(C(=O)N[C@@H](Cc2ccccc2)[C@H](O)CNC2CC3CCC2C3)cc(N2CCCCS2(=O)=O)c1.Cl (some centres undefined) ; measured Inhibition: 0

Recorded values, source ChEMBL document CHEMBL1157539.
